# TESTED_TARGET: NADPH oxidase 2 (Homo sapiens) (UniProt P04839)
# Sequence (P04839 whole entry, looked up): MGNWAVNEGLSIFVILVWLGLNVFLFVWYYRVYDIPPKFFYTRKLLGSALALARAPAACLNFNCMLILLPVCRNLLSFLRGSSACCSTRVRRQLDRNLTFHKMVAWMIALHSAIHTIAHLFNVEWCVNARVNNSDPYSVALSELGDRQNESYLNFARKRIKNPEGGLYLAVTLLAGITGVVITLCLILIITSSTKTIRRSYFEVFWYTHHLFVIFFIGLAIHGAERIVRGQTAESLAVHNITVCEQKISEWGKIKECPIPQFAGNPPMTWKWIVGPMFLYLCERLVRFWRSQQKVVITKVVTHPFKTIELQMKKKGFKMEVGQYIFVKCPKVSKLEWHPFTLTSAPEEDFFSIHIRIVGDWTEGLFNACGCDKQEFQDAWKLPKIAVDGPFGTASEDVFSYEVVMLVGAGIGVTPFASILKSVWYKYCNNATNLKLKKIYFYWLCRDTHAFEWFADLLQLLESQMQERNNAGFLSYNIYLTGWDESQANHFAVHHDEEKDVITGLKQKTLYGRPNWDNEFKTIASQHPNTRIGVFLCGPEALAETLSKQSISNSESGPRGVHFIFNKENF
# ASSAY_TEXT: NOX2-dependent H2O2 signal modulators, primary screen, NOX inhibitor project, cell-based, HEK293-NOX2, PMA-stimulated, Amplex Red fluorescence (AID 1159); further: test concentration not given here
# PARTICULARS: 45 min, higher = more signal, called active from +8 up or from −8 down
MEASURE_NAME: z-score
// no unit string in output, number only

The examples below pair each entry with its known result.
molecule="COC(=O)[C@H](C)NC(=O)CCC1CC(OC(=O)NCCc2ccc(F)cc2)CC2(CCCC(COC(=O)NCc3ccccc3)O2)O1 (some centres undefined)" tested_target="NADPH oxidase 2 (Homo sapiens) (UniProt P04839)" measure_name=z-score assay_value=0.0624
molecule=CCN1C(=O)[C@H]2[C@H]3[C@H](O)[C@H](O)CC(=NNC(=O)OCc4ccccc4)[C@H]3CC[C@H]2C1=O tested_target="NADPH oxidase 2 (Homo sapiens) (UniProt P04839)" measure_name=z-score assay_value=0.92

*Q* Entry under review: CO[C@@H]1[C@H](O)CO[C@H]1C=Cc1ccccc1 . Reported z-score?
*A* -0.403

*Q* Same thing, different molecule: O=C1C=C[C@@H](O)[C@@H]2[C@@H]3C(=O)N(Cc4ccccc4)C(=O)[C@@H]3CC[C@@H]12
*A* 0.808
